Taken from paper PMC10410440.

experiment: Plasma pharmacokinetics of SHR9146 in mice (LC-MS/MS, non-compartmental analysis)
Assay type: in vivo, ICR mice
particulars: both sexes, ICR, mouse, plasma, oral, 40 mg/kg, 40 mg/kg i.g. single; 0.25 h; read-out: plasma drug concentration, mean (n=6)
quantity.measured: concentration at 0.25 h

Using the record for OCCn1cc(-c2ccc(N3CCC([C@H]4c5c(F)cccc5-c5cncn54)CC3)cc2)cn1 , state its measured concentration at 0.25 h. 4.83 µg/mL

====

experiment: Tissue distribution of SHR9146 in mice after oral gavage of 40 mg/kg
Type: in vivo, ICR mice
particulars: female, ICR, mouse, heart, po, 40 mg/kg, female, 6 h, 40 mg/kg oral gavage, Mean (n=3); read-out: SHR9146 concentration in Heart
quantity.measured: concentration at 6 h (ng/g)
Give bare numbers, in ng/g.

Using the record for OCCn1cc(-c2ccc(N3CCC([C@H]4c5c(F)cccc5-c5cncn54)CC3)cc2)cn1 , state its measured concentration at 6 h. 334
